target: GABA A receptor α1β3γ2 (hα1) (Homo sapiens, UniProt P14867+P18507); construct: expressed in transfected cells; host or cells: HEK293, transiently transfected; membranes; assay: [3H]flumazenil competition binding, membranes of HEK293 cells expressing human GABA A α1β3γ2
Parameter: Ki (nM)
Respond numerically; units are nM and should not be typed.

Hello, please tell me recorded Ki for this one: O=C(Cc1nc2n(n1)Cc1c(Cl)ncn1-c1ccc(Br)cc1-2)NCCO
149

Hello, please tell me recorded Ki for this one: Clc1ccc2c(c1)-c1nc(Cn3cncn3)nn1Cc1c(Cl)ncn1-2
51.8

Hello, please tell me recorded Ki for this one: O=C(Cc1nc2n(n1)Cc1c(Cl)ncn1-c1ccc(Br)cc1-2)NC1CCOCC1
88.4

Hello, please tell me recorded Ki for this one: O=C(Cc1nc2n(n1)Cc1c(Cl)ncn1-c1ccc(Br)cc1-2)NC1CCCC1
91.7

Hello, please tell me recorded Ki for this one: Cc1ncn2c1Cn1nc(Cc3ccn[nH]3)nc1-c1ccccc1-2
56.6

Hello, please tell me recorded Ki for this one: Cc1noc(Cc2nc3n(n2)Cc2c(Cl)ncn2-c2ccc(Br)cc2-3)n1
98.2
